Let's look at some binders and their measured Kd.
Target: T1, recombinant gp120 of HIV-1 strain IIIb (HIV-1 strain IIIb, UniProt P04578 33-511)
T1 construct: domain: gp120; also called IIIb-derived gp120; gp 120 (IIIB strain)
Test: SPR BIAcore, gp120 on chip (summary table)
Report the figure in nM without appending any unit label.

• composite Fab H31/L42-1 (Fab, V domains shown, also called Fab of plasmid pPho-H31/L42-1 (ATCC 69691)) VH: LEQSGAEVKKPGASVKVSCQASGYRFSHFTVHWVRQAPGQRFEWHGWINPYNGNKEFSAKFQDRVTFTADTSANTAYMELRSLRSADTAVYYCARVGEWGWEMFRYDNYYMDVWGKGTTVIVSS VL: ELTQSPGTLSLSPGERATFSCRSSHQLDGSRVAWYQHKPGQAPRLVIHGVSNRASGISDRFSGSGSGTDFTLTITRVEPEDFALYYCQQYGWPFYTFGQGTKLERKR = 0.00259
• Fab QA2 (Fab, V domains shown) VH: LEQSGAEVKKPGASVKVSCQASGYRFSNFTVHWVRQAPGQRFEWMGWINPYNGNKEFSAKFQDRVTFTADTSANTAYMELRSLRSADTAVYYCARVGEWGWDDSPQDNYYMDVWGKGTTVIVSS VL: ELTQSPGTLSLSPGERATFSCRSSHQLDGSRVAWYQHKPGQAPRLVIHGVSNRASGISDRFSGSGSGTDFTLTITRVEPEDFALYYCQLYGRGNYTFGQGTKLERKR = 0.42

Problem: Query: Kd; subject: Fab M556-15 (Fab, V domains shown) VH: LEQSGAEVKKPGASVKVSCQASGYRFSNFTVHWVRQAPGQRFEWMGWINPYNGNKEFSAKFQDRVTFTADTSANTAYMELRSLRSADTAVYYCARVGEWGWTQRRFDNYYMDVWGKGTTVIVSS VL: ELTQSPGTLSLSPGERATFSCRSSHSIRSRRVAWYQHKPGQAPRLVIHGVSNRASGISDRFSGSGSGTDFTLTITRVEPEDFALYYCQVYGASSYTFGQGTKLERKR
Solution: 0.174
